- Tested on: HT29 colon
- protocol.details: NCI-60 one-dose screen, 48 h (100 = growth as untreated, 0 = no growth, -100 = all killed)
- reported.conditions: 10 µM unless noted
This is part of a sample that, as a whole, favours compounds with a hit. Of some 83,000 tested, about 20% had one in any assay.
One threshold, 90%, splits the recorded growth values: lower ones are 1 (yes), equal or higher ones are 0 (no).

CCCCCCCCCCCCN1C(C)=CS/C1=C\C=C\c1scc(C)[n+]1CCCCCCCCCCCC : 1 (yes)
COC(=O)c1nc(=S)[nH]c(C(=O)OC)c1C(=O)c1ccc(Cl)c(Cl)c1 : 0 (no)

Is 90% strictly greater than the compound's reported growth? compound: CC(=O)Nc1ccc(C(=O)CCl)cc1 1 (yes)

Is 90% strictly greater than the compound's reported growth? compound: OCCOSCCO 0 (no)

Is 90% strictly greater than the compound's reported growth? compound: COC(=O)[C@]1(C)CCC[C@]2(C)c3ccc(C(C)C)cc3C(=O)[C@@H](Br)[C@@H]12 1 (yes)

Is 90% strictly greater than the compound's reported growth? compound: OC(Cc1cc(CC(O)(C(F)(F)F)C(F)(F)F)nc(CC(O)(C(F)(F)F)C(F)(F)F)c1)(C(F)(F)F)C(F)(F)F 1 (yes)

Is 90% strictly greater than the compound's reported growth? compound: C/C(=N\NC(=S)N1CC2CCC(CC2)C1)c1ccccn1 1 (yes)

---

- System: UACC-257 melanoma
- protocol.details: NCI-60 one-dose screen, 48 h (100 = growth as untreated, 0 = no growth, -100 = all killed)
- reported.conditions: 10 µM unless noted
About 83,000 compounds went through this panel and 20% of them were active in at least one assay; those are over-represented in the sample as a whole.
One threshold, 80%, splits the recorded growth values: lower ones are Yes, equal or higher ones are No.

CCNc1nnnn1CC : No
CN(C)c1ccc(/C=C/c2cc[n+](C)c(/C=C/c3ccc(N(C)C)cc3)c2)cc1 : Yes
Nc1ccc(C(=O)/C=C/c2ccccc2)cc1 : No

Is 80% strictly greater than the compound's reported growth? compound: C(=N\Nc1ccc2ccccc2n1)/c1ccccn1 Yes

Is 80% strictly greater than the compound's reported growth? compound: COc1cccc2c1C(=O)c1c(O)c3c(c(O)c1C2=O)C[C@@](O)(C(=O)CO)C[C@@H]3OC1CC(OC(C)=O)C(OC(C)=O)C(C)O1 (stereo partly drawn) Yes

Is 80% strictly greater than the compound's reported growth? compound: COc1ccc2c(c1OC)OCC(CN(C)C)C2=O (stereo not drawn) No

Is 80% strictly greater than the compound's reported growth? compound: CCN(CC)CCNc1ccc([N+](=O)[O-])c2sc3ccccc3c(=O)c12 Yes

Is 80% strictly greater than the compound's reported growth? compound: CCCCC(C=O)(C=C=C(C)C)CC (stereo not drawn) No

Is 80% strictly greater than the compound's reported growth? compound: CCCCCCCCCCCC[n+]1ccc(CCCCCCCCC)cc1 Yes

---

- Tested on: SNB-19 CNS
- protocol.details: NCI-60 one-dose screen, 48 h
- reported.conditions: 10 µM unless noted
About 83,000 compounds went through this panel and 20% of them were active in at least one assay; those are over-represented in the sample as a whole. Active and inactive are the calls of the source. How the source made its calls: active means growth percent below 10; inactive means the rest.
Outcome field: choose from y (active), n (inactive)

How was CC(C)(C)c1ccc(O)c(Br)c1 classified in this test? n

How was CN(C)CCN(C)CC(C)(C)C(=O)/C=C/c1ccc(Cl)c(Cl)c1 classified in this test? y

How was CCCCCCCCCCCC[n+]1ccccc1 (tested in a mixture with another compound) classified in this test? y

How was CC(C)c1ccc(Nc2n[nH]c(=S)s2)cc1 classified in this test? n

How was O=C1C=Cc2ccccc2/C1=C/c1nc(-c2ccccc2)oc1O classified in this test? n

How was CCOC(=O)c1[nH]c(C#N)c(C(=O)OCC)c1C classified in this test? n

How was Cc1ccccc1NC(=O)Cc1csc2[n+]1C(=O)/C(=C/c1ccc([N+](=O)[O-])cc1)S2 classified in this test? n
